- System: 556581-035-R-J1-PDC complex spheroid growth;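 note: compound exposure lasted 7 days; 100% = DMSO vehicle control growth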
- assay-details: Anticancer human tumor 556581-035-R-J1-PDC patient-derived ovarian carcinoma cell line growth inhibition [AhR]
- measurement-parameters: second compound 0.316 µM; first compound 1 µM; active compounds read low
Please respond with reported viability, T/C for every item in the list.

[in] viability, T/C lookup needed for CC1COCCN1c1cc(-c2ccnn2C)c2ccnc(-c3ccn[nH]3)c2n1 (configuration not stated) + Cc1ccccc1N=Nc1ccc(NC(=O)c2ccnn2C)c(C)c1 , thanks.
[out] 51.8%

[in] Query: viability, T/C; subject: NS(=O)(=O)OCC1CC(n2ccc3c(NC4CCc5ccccc54)ncnc32)CC1O (configuration not stated) + Cc1ccccc1N=Nc1ccc(NC(=O)c2ccnn2C)c(C)c1
[out] 103%

[in] Which viability, T/C value belongs to O=C(C=Cc1cccc(S(=O)(=O)Nc2ccccc2)c1)NO + Cc1ccccc1N=Nc1ccc(NC(=O)c2ccnn2C)c(C)c1 ?
[out] 57.1%

[in] Recorded viability, T/C of CC(C)c1c(-c2ccccc2)nc2c(C#N)c[nH]n2c1=O + Cc1ccccc1N=Nc1ccc(NC(=O)c2ccnn2C)c(C)c1 , please.
[out] 96.1%

[in] Name the recorded viability, T/C for COc1cc(C2c3cc4c(cc3C(OC3OC5COC(C)OC5C(O)C3O)C3COC(=O)C23)OCO4)cc(OC)c1O (configuration not stated) + CC(CO)NC(=O)c1cc(-c2ccc(Cl)cc2)nn(-c2cnn(C)c2)c1=O .
[out] 67.8%

[in] Report viability, T/C for Nc1ncn(C2CC(O)C(CO)O2)c(=O)n1 (configuration not stated) + Cc1ccccc1N=Nc1ccc(NC(=O)c2ccnn2C)c(C)c1 please.
[out] 74.1%

[in] Please give the measured viability, T/C for this compound: CC1COCCN1c1cc(C2(S(C)(=N)=O)CC2)nc(-c2ccnc3[nH]ccc23)n1 (configuration not stated) + Cc1ccccc1N=Nc1ccc(NC(=O)c2ccnn2C)c(C)c1
[out] 92%
